Where these numbers come from: paper PMC10397247

targetOrTestSystem: T1, 4H797-bN
T1 chain: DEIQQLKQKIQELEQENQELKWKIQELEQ
measurementProtocol: two-hybrid library CCNG1;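 also: natural log of median RNA to DNA barcode read ratio; higher means stronger binding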
So basically: interaction score at -0.8 or higher? That is YES. Lower than -0.8? That is NO.

> print(dat)
                                      binder  assignedclass
 1  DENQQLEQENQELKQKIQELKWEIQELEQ [4H1257-bN]             NO
 2  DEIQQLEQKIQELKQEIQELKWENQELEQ [4H331-bN]             NO
 3  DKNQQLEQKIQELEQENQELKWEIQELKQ [4H3354-bN]            YES
 4  DEIQQLEQKIQELKQKNQELEWEIQELKQ [4H370-bN]            YES
 5  DKIQQLKQEIQELEQENQELKWEIQELKQ [4H2586-bN]            YES
 6  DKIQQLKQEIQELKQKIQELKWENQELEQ [4H2667-bN]             NO
 7  DKIQQLKQENQELEQEIQELKWEIQELEQ [4H2697-bN]             NO
 8  DEIQQLKQENQELEQKIQELKWENQELEQ [4H683-bN]            YES
 9  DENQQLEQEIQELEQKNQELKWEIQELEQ [4H1081-bN]             NO
10  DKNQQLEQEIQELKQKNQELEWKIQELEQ [4H3189-bN]             NO
11  DENQQLKQKIQELEQKIQELEWKNQELEQ [4H1831-bN]            YES
12  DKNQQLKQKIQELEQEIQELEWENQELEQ [4H3843-bN]            YES
13  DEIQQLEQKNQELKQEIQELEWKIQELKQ [4H454-bN]             NO
14  DEIQQLKQKIQELEQENQELKWKIQELEQ [4H797-bN]            YES
